fraction unbound overview
- test.protocol: Fraction unbound in Sprague-Dawley rat plasma
- Format: ADME, cell-free

smiles: Cn1cc(-c2cc(C(O)(C(F)(F)F)C(F)(F)F)cnc2N2CCN(S(=O)(=O)c3ccc(N)nc3)CC2)cn1
fraction unbound: 0.011

smiles: Nc1ccc(S(=O)(=O)N2CCN(c3ncc(C(O)(C(F)(F)F)C(F)(F)F)cc3-c3cccnc3)CC2)cn1
fraction unbound: 0.021
